PROCEDURE_TEXT: Cytotoxicity against MFF cells
Assay type: cell-based
COND: mouse
EXPERIMENTAL_READOUT: CC50

// returns reported CC50 for input Nc1ncnc2c1ncn2/C=C1/CC1(F)CO (stereo unspecified)
> 425 µM

---

PROCEDURE_TEXT: Cytotoxicity against HFF cells by neutral red uptake assay
Assay type: cell-based
COND: human
Attribute: CC50

Can you look up the measured CC50 of Nc1nc2c(ncn2/C=C2/CC2(F)CO)c(=O)[nH]1 (centres undefined) for me?
> 398 µM

I'd like to know its CC50. The compound in question is Nc1ncnc2c1ncn2/C=C1/CC1(F)CO (centres undefined)
> 425 µM

---

Tested on: Human alphaherpesvirus 3
PROCEDURE_TEXT: Inhibition of VZV replication in HFF cells by CPE assay
Type: functional, organism-based
COND: Human alphaherpesvirus 3, HFF
# EC50 annotations
Give the value, in units of µM, as a plain number.

// EC50 lookup, key: Cc1cn(/C=C2/CC2(F)CO)c(=O)[nH]c1=O (stereo not drawn)
0.62

Name the reported EC50 value associated with the compound Nc1ccn(/C=C2\CC2(F)CO)c(=O)n1 (stereo not drawn)
14.7

So what's the measured EC50 for this one? Nc1ccn(/C=C2/CC2(F)CO)c(=O)n1 (stereo not drawn)
0.62

# get_value(readout='EC50', item= Nc1ncnc2c1ncn2/C=C1/CC1(F)CO (stereo not drawn) )
14

---

Tested on: Human gammaherpesvirus 4
PROCEDURE_TEXT: Inhibition of EBV replication in Daudi cells by DNA hybridization assay
Assay type: functional, organism-based
COND: human gammaherpesvirus 4, Daudi
# Lookup of reported pEC50 keyed by entry
Give only the number. pEC50 is defined as minus log10 of concentration in molar units.

Guide cases for pEC50, answers given:
• Nc1ccn(/C=C2\CC2(F)CO)c(=O)n1 (centres undefined) = 4.02
• Nc1nc2c(ncn2COCCO)c(=O)[nH]1 = 5.28
• Nc1ccn(/C=C2/CC2(F)CO)c(=O)n1 (centres undefined) = 4.55

Item under review: Cc1cn(/C=C2/CC2(F)CO)c(=O)[nH]c1=O (centres undefined) . Reported pEC50?
5.36

---

Test system: Human immunodeficiency virus 1
PROCEDURE_TEXT: Inhibition of HIV1 LAI replication in MT2 by CPE assay
Assay type: functional, organism-based
COND: Human immunodeficiency virus 1, LAI
# Lookup of reported EC50 keyed by entry

// known answers, use as guide
• Nc1ccn(/C=C2/CC2(F)CO)c(=O)n1 (centres undefined) = > 100 µM
• Cc1cn([C@H]2C[C@H](N=[N+]=[N-])[C@@H](CO)O2)c(=O)[nH]c1=O [ZIDOVUDINE] = 0.02 µM
• Nc1ncnc2c1ncn2/C=C1\CC1(F)CO (centres undefined) = 2.3 µM

As a next step, examine the compound that follows.
Which EC50 is reported for this compound? Cc1cn(/C=C2/CC2(F)CO)c(=O)[nH]c1=O (centres undefined)
> 100 µM

---

System: Human gammaherpesvirus 4
PROCEDURE_TEXT: Inhibition of EBV replication in Daudi cells by VCA ELISA
Type: functional, organism-based
COND: human gammaherpesvirus 4, Daudi
EXPERIMENTAL_READOUT: pEC50
Would you please state pEC50, meaning minus log10 of the concentration in mol/L, as a bare number?

- Nc1ncnc2c1ncn2/C=C1/CC1(F)CO (configuration not stated): 5.84
- Nc1nc2c(ncn2/C=C2/CC2(F)CO)c(=O)[nH]1 (configuration not stated): 5.32
- Nc1ccn(/C=C2\CC2(F)CO)c(=O)n1 (configuration not stated): 6.12

Let's switch to this compound now.
What pEC50 value was documented for this compound, Cc1cn(/C=C2/CC2(F)CO)c(=O)[nH]c1=O (configuration not stated) ?
4.29

---

PROCEDURE_TEXT: Cytotoxicity against Daudi cells
Format: cell-based
COND: human
EXPERIMENTAL_READOUT: CC50

Observe how each entry below is paired with its result.
* Nc1ccn(/C=C2/CC2(F)CO)c(=O)n1 (centres undefined) | > 237 µM
* Nc1ccn(/C=C2\CC2(F)CO)c(=O)n1 (centres undefined) | > 237 µM
* Nc1nc2c(ncn2COCCO)c(=O)[nH]1 | > 222 µM
* Cc1cn(/C=C2/CC2(F)CO)c(=O)[nH]c1=O (centres undefined) | > 221 µM
* Nc1ncnc2c1ncn2/C=C1/CC1(F)CO (centres undefined) | > 213 µM

Please find the next compound below.
Dear colleague, I am looking for the recorded CC50 of the following compound: Nc1nc2c(ncn2/C=C2/CC2(F)CO)c(=O)[nH]1 (centres undefined)
> 199 µM

---

Tested on: Human immunodeficiency virus 1
PROCEDURE_TEXT: Inhibition of HIV1 LAI replication in MT4 by CPE assay
Assay type: functional, organism-based
COND: Human immunodeficiency virus 1, LAI
EXPERIMENTAL_READOUT: EC50 (µM)
Unit µM implied. Number only.

* Nc1ncnc2c1ncn2/C=C1\CC1(F)CO (configuration not stated) | 7.6

# evaluate next
For Human immunodeficiency virus 1, provide EC50 of Nc1ncnc2c1ncn2/C=C1/CC1(F)CO (configuration not stated) please.
22

---

The entries below are paired with their reported CC50.
PROCEDURE_TEXT: Cytotoxicity against Vero cells
Format: cell-based
COND: chlorocebus sabaeus

These recorded examples may help you get a feel for the data.
• Nc1nc2c(ncn2/C=C2/CC2(F)CO)c(=O)[nH]1 (stereo not drawn) = > 100 µM
• Nc1nc2c(ncn2/C=C2\CC2(F)CO)c(=O)[nH]1 (stereo not drawn) = > 100 µM
• Nc1ncnc2c1ncn2/C=C1/CC1(F)CO (stereo not drawn) = > 100 µM
• Cc1cn(/C=C2\CC2(F)CO)c(=O)[nH]c1=O (stereo not drawn) = > 100 µM
• Nc1ccn(/C=C2/CC2(F)CO)c(=O)n1 (stereo not drawn) = > 100 µM
• Nc1ncnc2c1ncn2/C=C1\CC1(F)CO (stereo not drawn) = > 100 µM

GET /values?readout=CC50&item= Cc1cn(/C=C2/CC2(F)CO)c(=O)[nH]c1=O (stereo not drawn)
> 100 µM

I'd like to know its CC50. The molecule in question is Nc1ccn(/C=C2\CC2(F)CO)c(=O)n1 (stereo not drawn)
> 100 µM

---

PROCEDURE_TEXT: Cytotoxicity against MT2 cells
Assay type: cell-based
COND: human
EXPERIMENTAL_READOUT: CC50

Answered cases to consult:
* Nc1ncnc2c1ncn2/C=C1\CC1(F)CO (centres undefined) | > 100 µM
* Nc1nc2c(ncn2/C=C2/CC2(F)CO)c(=O)[nH]1 (centres undefined) | > 100 µM
* Nc1ccn(/C=C2\CC2(F)CO)c(=O)n1 (centres undefined) | > 100 µM

Consider the compound shown here: Nc1ncnc2c1ncn2/C=C1/CC1(F)CO (centres undefined) What is its recorded CC50?
> 100 µM

What value of CC50 has been recorded for this entry: Cc1cn([C@H]2C[C@H](N=[N+]=[N-])[C@@H](CO)O2)c(=O)[nH]c1=O
> 10 µM

Data request, read-out CC50, for Cc1cn(/C=C2/CC2(F)CO)c(=O)[nH]c1=O (centres undefined)
> 100 µM

For Cc1cn(/C=C2\CC2(F)CO)c(=O)[nH]c1=O (centres undefined) , what is its reported CC50?
> 100 µM

Which CC50 is listed for Nc1ccn(/C=C2/CC2(F)CO)c(=O)n1 (centres undefined) ?
> 100 µM

Which CC50 is listed for Nc1nc2c(ncn2/C=C2\CC2(F)CO)c(=O)[nH]1 (centres undefined) ?
> 100 µM

---

PROCEDURE_TEXT: Cytotoxicity against HFF cells by neutral red uptake assay
Format: cell-based
COND: human
EXPERIMENTAL_READOUT: CC50

* Cc1cn(/C=C2\CC2(F)CO)c(=O)[nH]c1=O (configuration not stated) | > 442 µM
* Nc1ncnc2c1ncn2/C=C1\CC1(F)CO (configuration not stated) | > 417 µM
* Nc1ccn(/C=C2/CC2(F)CO)c(=O)n1 (configuration not stated) | > 474 µM
* Nc1nc2c(ncn2/C=C2\CC2(F)CO)c(=O)[nH]1 (configuration not stated) | > 398 µM
* Nc1ccn(/C=C2\CC2(F)CO)c(=O)n1 (configuration not stated) | > 474 µM
* Nc1nc2c(ncn2COC(CO)CO)c(=O)[nH]1 | > 392 µM

Switching to the query record.
So what's the measured CC50 for this one? Cc1cn(/C=C2/CC2(F)CO)c(=O)[nH]c1=O (configuration not stated)
> 442 µM

---

Test system: Human alphaherpesvirus 3
PROCEDURE_TEXT: Inhibition of VZV replication in HFF cells by CPE assay
Format: functional, organism-based
COND: Human alphaherpesvirus 3, HFF
EXPERIMENTAL_READOUT: EC50

In the examples that follow, each entry is paired with its recorded EC50.
• Nc1nc2c(ncn2/C=C2\CC2(F)CO)c(=O)[nH]1 (centres undefined) = > 79.6 µM
• Nc1ncnc2c1ncn2/C=C1\CC1(F)CO (centres undefined) = > 83.4 µM
• Nc1nc2c(ncn2/C=C2/CC2(F)CO)c(=O)[nH]1 (centres undefined) = > 79.6 µM

Kindly review the next compound as well.
Fill blank: measured EC50 of the compound Cc1cn(/C=C2\CC2(F)CO)c(=O)[nH]c1=O (centres undefined) is ____.
> 442 µM
